Origin of values: PubChem BioAssay (NCI)

tested on: HL-60(TB) leukemia; test: NCI-60 one-dose screen, 48 h (100 = growth as untreated, 0 = no growth, -100 = all killed); details: 10 µM unless noted
About 83,000 compounds went through this panel and 20% of them were active in at least one assay; those are over-represented in the sample as a whole.
Assign growth to each entry below.
Give the value, in units of %, as a plain number.

Name the recorded growth of the item O=C1CC2C=CCN2C=C1NC(=O)c1ccccc1 (stereo not given) in your answer.
100

Name the recorded growth of the item CCN(C(=O)CCl)C(C)(C)C(SSSC(c1ccc(Cl)cc1)C(C)(C)N(CC)C(=O)CCl)c1ccc(Cl)cc1 (stereo not given) in your answer.
42.1

Name the recorded growth of the item `C/C(=N\N=C1/SCC(=O)N1c1ccccc1)c1ccco1` in your answer.
99

Name the recorded growth of the item `CCCCCCCN(CCCCCCC)C(=N)c1ccnc2ccccc12` in your answer.
-64.4

Name the recorded growth of the item `CCCCCCNC(=O)Oc1ccc(/C(=C(/C)Cc2ccc(OC)cc2)c2ccc(OCCN(C)C)cc2)cc1` in your answer.
47.4

Name the recorded growth of the item `Cc1cc(C2(c3cc(C)c(O)cc3C)OS(=O)(=O)c3ccccc32)c(C)cc1O` in your answer.
87.8

Name the recorded growth of the item `COc1ccc(-n2nc3c(c2-c2ccc(OC)c(OC)c2)-c2oncc2CC3)cc1` in your answer.
88.4

Name the recorded growth of the item `O=C1Nc2ccccc2/C1=C/c1cn(C(=O)c2ccc(Cl)cc2)c2ccccc12` in your answer.
150

Name the recorded growth of the item `O=c1c(-c2nc3ccccc3[nH]2)cc2ccccc2n1Cc1cn(Cc2ccc(N3CCOCC3)cc2)nn1` in your answer.
104

Name the recorded growth of the item `Nc1cc(N)c2nc(-c3ccccc3)c(NCCc3ccc(Cl)c(Cl)c3)nc2c1` in your answer.
-10.5

Name the recorded growth of the item C/C=C(/C)C(=O)OC1C=C(CO)C(=O)C(OC(=O)/C(C)=C\C)C1C(C)C (stereo not given) in your answer.
-32

Name the recorded growth of the item `COc1cc2oc3cc(C)oc(=O)c3c2cc1OC` in your answer.
80.3

Name the recorded growth of the item `OCCn1cc(-c2nc(-c3c[nH]c4ncccc34)cs2)c2ccccc21` in your answer.
79.1

Name the recorded growth of the item `Cc1cc(-c2ccc(N=Nc3c(S(=O)(=O)O)cc4cc(S(=O)(=O)O)cc(O)c4c3O)c(C)c2)ccc1N=Nc1c(S(=O)(=O)O)cc2cc(S(=O)(=O)O)cc(O)c2c1O` in your answer.
119

Name the recorded growth of the item `N#Cc1c[nH]n2ccnc12` in your answer.
123

Name the recorded growth of the item `O=C(CSSCC(=O)c1ccc(Cl)cc1)c1ccc(Cl)cc1` in your answer.
44.7

Name the recorded growth of the item `CN(C)CCCn1c2c(c3ccc(N4CCNCC4)cc3c1=O)C(=O)c1ccccc1-2` in your answer.
8.73

Name the recorded growth of the item O=C1CC23OC(C(O)c4ccccc4N12)C1C(c2ccccc2)=NOC13 (stereo not given) in your answer.
8.01

Name the recorded growth of the item `COc1ccc(/C=C2\NC(=S)NC2=O)cc1` in your answer.
91.6

Name the recorded growth of the item `COc1ccc(-c2nnc(-c3c(-c4ccccc4)nc4ncccn34)o2)cc1OC` in your answer.
85.5

Name the recorded growth of the item `COc1cc(-c2nc(SCCC(C)C)nc(Nc3ccccc3)c2C#N)cc(OC)c1OC` in your answer.
83.9

Name the recorded growth of the item `COc1cc(-c2nc(-c3nnc(-c4cccnc4)o3)c3ccccn23)cc(OC)c1OC` in your answer.
95.7

Name the recorded growth of the item `O=C1/C=C/[C@@H](O)[C@@H]2C[C@@H](O)C[C@H]2/C=C/CCC[C@@H](C(F)(F)F)O1` in your answer.
104

Name the recorded growth of the item CCn1c2c(c3ccccc31)SC1c3cccn3CCN1C2=S (stereo not given) in your answer.
87.5

Name the recorded growth of the item `CCN(CC)CCCNC(=O)c1ccc(N)cc1O` in your answer.
82.4

Name the recorded growth of the item `CNC(=O)c1cc(-n2ccc3cc(NC(=O)c4ccc(N5CCOCC5)c(C(F)(F)F)c4)ccc32)ccn1` in your answer.
66.3

Name the recorded growth of the item `C[C@H](C(=O)N(CCc1ccc(Cl)c(Cl)c1)Cc1cncs1)[C@@H]1CC[C@H](C[C@H](C)n2cc(CN3CCC(c4ccc(Cl)cc4)CC3)nn2)O1` in your answer.
-71.2

Name the recorded growth of the item `Cc1cc(C)c(S(=O)(=O)N2CCN(c3cc4c(cc3F)c(=O)c(C(=O)O)cn4C3CC3)CC2)c(C)c1` in your answer.
8.72

Name the recorded growth of the item `Cc1ccc(C(=O)c2ccccc2)c(C)c1` in your answer.
115

Name the recorded growth of the item `CN(C)CCCn1c2c(c3cc(-c4ccco4)ccc3c1=O)C(=O)c1ccccc1-2` in your answer.
93.1

Name the recorded growth of the item `O=C(Nc1ccc(-n2cc(-c3ccncc3)c(-c3ccc(O)c(Cl)c3)n2)cc1)c1ccc(Cl)c(Cl)c1` in your answer.
14.7

Name the recorded growth of the item `COc1cc(/C=C2\CCC/C(=C\c3cc(CN4CCCC4)c(O)c(OC)c3)C2=O)cc(CN2CCCC2)c1O` in your answer.
5.18

Name the recorded growth of the item `CCSc1nc2scc(C)c2c(=O)[nH]1` in your answer.
99.8

Name the recorded growth of the item `CC(=O)c1cc2ccccc2o1` in your answer.
102

Name the recorded growth of the item O=C1NC(=O)C(Cn2cnc3ccccc32)N1 (stereo not given) in your answer.
95.8

Name the recorded growth of the item `COc1cc2c(cc1O)CC[C@@H]1[C@@H]2CC[C@]2(C)[C@@H](OCCN(C)C)CC[C@@H]12` in your answer.
87.6

Name the recorded growth of the item COc1ccc(C2NC(=O)C(C#N)c3c2sc2c(F)cccc32)c(OC)c1 (stereo not given) in your answer.
56.9

Name the recorded growth of the item `Nc1ccc(CC[C@H]2CCC/C=C/[C@@H]3C[C@H](O)C[C@H]3[C@H](O)/C=C/C(=O)O2)cc1` in your answer.
-8.51

Name the recorded growth of the item `C/C(=N\NC(=O)CSc1nc2ccccc2c(=O)n1Cc1ccc(S(N)(=O)=O)cc1)c1ccc(F)cc1` in your answer.
101

Name the recorded growth of the item `C1CCc2onc(-c3noc4c3CCCCC4)c2CC1` in your answer.
102
